Target: human NTCP (Homo sapiens, UniProt Q14973)
Sequence (Q14973 1-349): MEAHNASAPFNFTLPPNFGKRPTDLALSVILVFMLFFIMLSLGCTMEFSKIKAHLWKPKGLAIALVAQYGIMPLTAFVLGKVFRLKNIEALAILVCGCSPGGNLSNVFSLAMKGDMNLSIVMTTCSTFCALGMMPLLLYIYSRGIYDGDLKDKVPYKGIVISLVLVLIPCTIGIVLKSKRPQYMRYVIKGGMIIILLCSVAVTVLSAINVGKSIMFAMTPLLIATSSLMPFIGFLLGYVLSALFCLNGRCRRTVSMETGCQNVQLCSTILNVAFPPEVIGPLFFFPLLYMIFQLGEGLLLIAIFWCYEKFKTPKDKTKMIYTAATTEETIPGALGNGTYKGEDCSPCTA
Assay: Screening taurocholate uptake assay (96-well, [14C]taurocholate, 10 µM drug)
Settings: combined ranking from functional and binding screening assays
For each entry below, report its Ranking score value.
Respond numerically, and do not add a unit to the figure.

Item: CN1C(=O)CC(c2ccccc2)C1=O (stereo not drawn) [Phensuximide] | Ranking score: 401.836

Item: Nc1ccn([C@@H]2CS[C@H](CO)O2)c(=O)n1 | Ranking score: 411.191

Item: C#C[C@]1(O)CC[C@H]2[C@@H]3CCC4=Cc5oncc5C[C@]4(C)[C@H]3CC[C@@]21C | Ranking score: 407.041

====

For each entry below, report its Ranking score value.
molecular target: human NTCP (Homo sapiens, UniProt Q14973); experiment: Screening taurocholate uptake assay (96-well, [14C]taurocholate, 10 µM drug); conditions: ranking over the functional and the binding screening assay
Counter-ions that a name gives are not always drawn.
Respond numerically, and do not add a unit to the figure.

Item: C[C@H](CCC(=O)O)[C@H]1CC[C@H]2[C@@H]3[C@@H](O)C[C@@H]4C[C@H](O)CC[C@]4(C)[C@H]3CC[C@]12C [Urosiol] | Ranking score: 126.965

Item: Clc1ccc(COC(Cn2ccnc2)c2ccc(Cl)cc2Cl)c(Cl)c1 (centres unmarked) [Miconazole] | Ranking score: 240.998

Item: Cc1cccc(C)c1NC(=O)C1CCCCN1C (centres unmarked) [Mepivacaine hydrochloride] | Ranking score: 206.427

Item: CCc1cccc2c3c([nH]c12)C(CC)(CC(=O)O)OCC3 (centres unmarked) [Etodolac] | Ranking score: 112.748

Item: CC(C)c1c(C(=O)Nc2ccccc2)c(-c2ccccc2)c(-c2ccc(F)cc2)n1CC[C@@H](O)C[C@@H](O)CC(=O)O [Atorvastatin] | Ranking score: 231.469

Item: [H]/N=C(/N)N[C@H]1[C@H](O)[C@@H](O)[C@H](O[C@@H]2O[C@@H](C)[C@](O)(C=O)[C@H]2O[C@@H]2O[C@@H](CO)[C@H](O)[C@@H](O)[C@@H]2NC)[C@@H](N/C(N)=N\[H])[C@@H]1O [Streptomycin sulfate] | Ranking score: 115.983

Item: CO[C@H]1/C=C/O[C@@]2(C)Oc3c(C)c(O)c4c(O)c(c(/C=N/N5CCN(C6CCCC6)CC5)c(O)c4c3C2=O)NC(=O)/C(C)=C\C=C\[C@H](C)[C@H](O)[C@@H](C)[C@@H](O)[C@@H](C)[C@H](OC(C)=O)[C@@H]1C [Rifapentine] | Ranking score: 220.209

Item: CC(=O)N(CC(O)CN(C(C)=O)c1c(I)c(C(=O)NCC(O)CO)c(I)c(C(=O)NCC(O)CO)c1I)c1c(I)c(C(=O)NCC(O)CO)c(I)c(C(=O)NCC(O)CO)c1I (centres unmarked) [Iodixanol] | Ranking score: 270.78

Item: CCc1nn(CCCN2CCN(c3cccc(Cl)c3)CC2)c(=O)n1CCOc1ccccc1 [Nefazodone HCl] | Ranking score: 227.321

Item: CN(CCOc1ccc(CC2SC(=O)NC2=O)cc1)c1ccccn1.Cl (centres unmarked) [Rosiglitazone Hydrochloride] | Ranking score: 31.1127

Item: COc1cc(C)nc(-n2nc(C)cc2OC)n1 [Epirizole] | Ranking score: 209.705

Item: Cc1ccc(S(=O)(=O)NC(=O)NN2CC3CCCC3C2)cc1 (centres unmarked) [Gliclazide] | Ranking score: 246.057

Item: CCOC(=O)NNc1nncc2ccccc12 [Todralazine hydrochloride] | Ranking score: 269.251

Item: COc1ccc(CCN2CCC(Nc3nc4ccccc4n3Cc3ccc(F)cc3)CC2)cc1 [Astemizole] | Ranking score: 231.853
